Target: T1, rhKLK14 (human, UniProt Q9P0G3 25-251)
T1 sequence (looked up): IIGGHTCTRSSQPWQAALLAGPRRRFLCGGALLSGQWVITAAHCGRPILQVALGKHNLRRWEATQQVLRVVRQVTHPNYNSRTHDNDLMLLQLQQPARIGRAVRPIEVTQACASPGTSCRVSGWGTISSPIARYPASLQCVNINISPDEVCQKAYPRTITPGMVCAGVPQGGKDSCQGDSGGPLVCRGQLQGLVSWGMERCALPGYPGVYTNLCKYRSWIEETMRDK
Experiment: cell-based or functional assay
For each of the binders below, state its KLK14, percent inhibition at 316 nM SPINK9 polypeptide, pH 8.0.
Numbers only, in %.

These solved cases illustrate the format of a correct answer.
Spink9-30.Fc (SEQ ID NO: 55) (Fc fusion, Mutant SPINK9 domain fused directly to a C-terminal IgG Fc) IECAKQTKQMVDCSHYKKLPPEQVSWCTREYDPICGSDGKTYKNDCFFCSKVKKTDGTLKFVHFGKCEPKSCDKTHTCPPCPAPEAAGGPSVFLFPPKPKDTLMISRTPEVTCVVVDVSHEDPEVKFNWYVDGVEVHNAKTKPREEQYNSTYRVVSVLTVLHQDWLNGKEYKCKVSNKALPAPIEKTISKAKGQPREPQVYTLPPSREEMTKNQVSLTCLVKGFYPSDIAVEWESNGQPENNYKTTPPVLDSDGSFFLYSKLTVDKSRWQQGNVFSCSVLHEALHSHYTQKSLSLSPGK; 0
Spink9-186.Fc (SEQ ID NO: 58) (Fc fusion, Mutant SPINK9 domain fused directly to a C-terminal IgG Fc) IECAKQTKQMVDCSHYKKLPPAQLIYCTKEYDPICGSDGKTYKNDCFFCSKVKKTDGTLKFVHFGKCEPKSCDKTHTCPPCPAPEAAGGPSVFLFPPKPKDTLMISRTPEVTCVVVDVSHEDPEVKFNWYVDGVEVHNAKTKPREEQYNSTYRVVSVLTVLHQDWLNGKEYKCKVSNKALPAPIEKTISKAKGQPREPQVYTLPPSREEMTKNQVSLTCLVKGFYPSDIAVEWESNGQPENNYKTTPPVLDSDGSFFLYSKLTVDKSRWQQGNVFSCSVLHEALHSHYTQKSLSLSPGK; 0

// moving on: another record for KLK14, percent inhibition at 316 nM SPINK9 polypeptide, pH 8.0
Give me measured KLK14, percent inhibition at 316 nM SPINK9 polypeptide, pH 8.0, please, for this binder: Spink9-183.Fc (SEQ ID NO: 57) (Fc fusion, Mutant SPINK9 domain fused directly to a C-terminal IgG Fc) IECAKQTKQMVDCSHYKKLPPQQQAYCTRDYDPICGSDGKTYKNDCFFCSKVKKTDGTLKFVHFGKCEPKSCDKTHTCPPCPAPEAAGGPSVFLFPPKPKDTLMISRTPEVTCVVVDVSHEDPEVKFNWYVDGVEVHNAKTKPREEQYNSTYRVVSVLTVLHQDWLNGKEYKCKVSNKALPAPIEKTISKAKGQPREPQVYTLPPSREEMTKNQVSLTCLVKGFYPSDIAVEWESNGQPENNYKTTPPVLDSDGSFFLYSKLTVDKSRWQQGNVFSCSVLHEALHSHYTQKSLSLSPGK
0
